# TEST SYSTEM: T1, Human BCMA (human, UniProt Q02223 1-54, limits assumed)
# T1 construct: Soluble analyte in SPR; construct not described; also called huBCMA; B-cell maturation antigen
# T1 sequence (looked up): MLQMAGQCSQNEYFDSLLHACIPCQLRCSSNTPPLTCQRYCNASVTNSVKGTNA
# PROCEDURE DETAILS: SPR, IgG immobilised, 37 C
Item-by-item account of T ½

BINDER	T ½ / min
L3.PY/L3.KY/H2.DY (antibody, V domains shown, IgG) VH: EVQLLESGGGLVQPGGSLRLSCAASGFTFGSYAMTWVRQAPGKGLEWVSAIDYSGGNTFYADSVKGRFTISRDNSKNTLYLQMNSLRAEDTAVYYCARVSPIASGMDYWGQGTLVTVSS VL: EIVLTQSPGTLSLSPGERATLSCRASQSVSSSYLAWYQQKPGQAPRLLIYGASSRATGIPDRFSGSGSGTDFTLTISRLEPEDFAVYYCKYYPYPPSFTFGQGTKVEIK	18
L3.PY/L1.FF/H2.LT (antibody, V domains shown, IgG) VH: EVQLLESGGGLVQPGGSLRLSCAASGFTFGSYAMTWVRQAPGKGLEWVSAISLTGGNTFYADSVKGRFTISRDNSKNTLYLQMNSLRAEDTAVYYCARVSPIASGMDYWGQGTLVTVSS VL: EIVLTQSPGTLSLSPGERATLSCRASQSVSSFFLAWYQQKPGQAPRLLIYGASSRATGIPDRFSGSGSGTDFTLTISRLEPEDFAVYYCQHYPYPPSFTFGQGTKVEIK	6.92
L3.PY/L1.AH/H3.TAQ (antibody, V domains shown, IgG) VH: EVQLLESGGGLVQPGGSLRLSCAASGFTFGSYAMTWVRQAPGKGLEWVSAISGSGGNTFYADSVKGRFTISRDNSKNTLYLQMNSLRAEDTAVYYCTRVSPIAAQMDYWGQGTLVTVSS VL: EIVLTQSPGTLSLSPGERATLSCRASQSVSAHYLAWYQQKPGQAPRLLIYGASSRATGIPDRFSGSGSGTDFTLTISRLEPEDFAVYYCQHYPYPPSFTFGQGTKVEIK	9.68

// provenance: patent US20160297884A1
